These measurements were taken from patent US8648076B2.

Molecular target: USP5 (Homo sapiens)
Sequence (P45974 1-858): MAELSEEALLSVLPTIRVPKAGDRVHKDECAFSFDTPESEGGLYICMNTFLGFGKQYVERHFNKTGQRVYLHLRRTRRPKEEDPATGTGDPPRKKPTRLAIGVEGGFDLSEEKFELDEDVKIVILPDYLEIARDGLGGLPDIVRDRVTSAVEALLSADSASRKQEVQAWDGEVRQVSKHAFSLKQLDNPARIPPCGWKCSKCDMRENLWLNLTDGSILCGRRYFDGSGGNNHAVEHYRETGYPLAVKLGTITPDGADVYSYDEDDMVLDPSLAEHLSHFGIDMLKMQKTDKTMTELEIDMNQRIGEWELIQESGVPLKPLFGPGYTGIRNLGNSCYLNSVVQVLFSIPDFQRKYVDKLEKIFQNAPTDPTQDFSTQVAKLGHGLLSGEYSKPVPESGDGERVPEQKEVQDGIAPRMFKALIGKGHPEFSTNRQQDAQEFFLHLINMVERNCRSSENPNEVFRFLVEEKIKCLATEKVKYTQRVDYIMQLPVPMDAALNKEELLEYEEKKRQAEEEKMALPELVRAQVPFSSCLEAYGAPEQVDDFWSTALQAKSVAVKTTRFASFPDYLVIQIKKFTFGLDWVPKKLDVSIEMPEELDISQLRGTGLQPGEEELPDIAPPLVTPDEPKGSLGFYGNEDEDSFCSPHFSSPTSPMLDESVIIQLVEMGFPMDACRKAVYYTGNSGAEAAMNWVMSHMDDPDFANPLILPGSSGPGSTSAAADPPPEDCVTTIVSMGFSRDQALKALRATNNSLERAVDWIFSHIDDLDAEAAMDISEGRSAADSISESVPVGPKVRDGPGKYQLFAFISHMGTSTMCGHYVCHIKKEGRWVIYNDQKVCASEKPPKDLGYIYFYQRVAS
pIC50: −log10 of the molar value.
pIC50 by entry:

{"columns": ["compound", "tested_target", "qualifier_sign", "pIC50"],
 "data": [
  ["COc1ccc2c(c1OC)C(=O)c1nc(C#N)c(C#N)nc1-2 [Example 17d]", "USP5 (Homo sapiens)", "=", 5.60],
  ["N#CNc1nc2c(nc1C#N)C(=O)c1ccccc1-2", "USP5 (Homo sapiens)", "<", 4.00],
  ["C=CCON=C1c2ccc(Cl)cc2-c2nc(C#N)c(C#N)nc21 [Example 27c]", "USP5 (Homo sapiens)", "=", 5.77],
  ["CCON=C1c2ccccc2-c2nc(C#N)c(C#N)nc21 (mixture of isomers) [Example 13d]", "USP5 (Homo sapiens)", "<", 4.00],
  ["CCSc1nc2c(nc1C#N)C(=O)c1ccccc1-2", "USP5 (Homo sapiens)", "<", 4.00]
]}

###

Sequence of the target: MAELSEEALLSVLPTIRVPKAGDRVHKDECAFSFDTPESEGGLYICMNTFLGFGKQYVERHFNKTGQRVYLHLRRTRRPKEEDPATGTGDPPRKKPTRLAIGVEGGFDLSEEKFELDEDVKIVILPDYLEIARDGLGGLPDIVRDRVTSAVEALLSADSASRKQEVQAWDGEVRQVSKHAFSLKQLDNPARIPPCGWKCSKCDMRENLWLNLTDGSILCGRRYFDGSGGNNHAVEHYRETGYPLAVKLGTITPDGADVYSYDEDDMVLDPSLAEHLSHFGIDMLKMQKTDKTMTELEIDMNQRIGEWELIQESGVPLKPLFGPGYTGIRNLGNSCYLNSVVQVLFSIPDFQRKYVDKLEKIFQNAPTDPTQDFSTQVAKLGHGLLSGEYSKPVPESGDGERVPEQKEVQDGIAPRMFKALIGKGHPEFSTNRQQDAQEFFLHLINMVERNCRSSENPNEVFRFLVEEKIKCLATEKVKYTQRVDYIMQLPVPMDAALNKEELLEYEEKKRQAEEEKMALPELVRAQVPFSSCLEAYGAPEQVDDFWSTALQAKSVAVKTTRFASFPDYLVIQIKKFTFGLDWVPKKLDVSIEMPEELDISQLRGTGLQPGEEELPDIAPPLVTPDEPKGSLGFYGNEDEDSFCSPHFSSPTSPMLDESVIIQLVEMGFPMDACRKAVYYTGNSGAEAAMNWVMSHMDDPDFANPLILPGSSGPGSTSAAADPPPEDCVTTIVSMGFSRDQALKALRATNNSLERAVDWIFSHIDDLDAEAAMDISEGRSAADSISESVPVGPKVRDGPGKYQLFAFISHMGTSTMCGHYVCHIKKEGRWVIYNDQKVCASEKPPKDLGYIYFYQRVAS
pIC50: −log10 of the molar value.
I would appreciate it if you labelled entries yes when pIC50 is 6 or higher, otherwise no.

{"columns": ["compound", "discrete_label"],
 "data": [
  ["COCCON=C1c2ccccc2-c2nc(C(N)=O)c(C#N)nc21 [Example 34c]", "yes"],
  ["N#Cc1nc2c(nc1C#N)-c1ccc(O)cc1C2=O [Example 17j]", "no"],
  ["N#Cc1nc2c(nc1O)-c1ccccc1C2=O", "no"],
  ["C=CCON=C1c2ccccc2-c2nc(C#N)c(C#N)nc21 (mixture of isomers) [Example 13b]", "no"],
  ["N#Cc1nc2c(nc1O)-c1ccc(Cl)cc1C2=O", "no"],
  ["COc1cc2c(cc1OC)-c1nc(C#N)c(C#N)nc1C2=O [Example 17b]", "no"],
  ["CCc1ccc2c(c1)-c1nc(C#N)c(C#N)nc1C2=O", "no"],
  ["COc1ccc2c(c1)-c1nc(C#N)c(C#N)nc1C2=O [Example 17a]", "no"],
  ["Cc1cccc2c1C(=O)c1nc(C#N)c(C#N)nc1-2 [Example 17c]", "no"],
  ["C=CCON=C1c2ccccc2-c2nc(C(N)=O)c(C#N)nc21 [Example 34a]", "yes"],
  ["N#Cc1nc2sc3ccccc3c2nc1C#N", "no"],
  ["N#Cc1nc2c(nc1C(N)=O)-c1ccccc1C2=O", "yes"],
  ["CCON=C1c2ccccc2-c2nc(C(N)=O)c(C#N)nc21 [Example 34b]", "yes"],
  ["N#Cc1nc2c(nc1C#N)-c1ccccc1C2=Nc1ccccc1 (mixture of isomers)", "no"],
  ["N#Cc1nc2c(nc1C#N)C(=O)c1ccccc1C2=O", "no"],
  ["CCO/C(O)=C(\\C#N)c1nc2c(nc1C#N)C(=O)c1ccccc1-2", "no"],
  ["COc1ccc2c(c1)C(=O)c1nc(C#N)c(C#N)nc1-2 [Example 17i]", "no"],
  ["Cc1cccc2c1Cc1nc(C#N)c(C#N)nc1-2 [Example 16c]", "no"]
]}

###

Reported values: IC50 for Cathepsin B (Homo sapiens, UniProt P07858), one per item.

{"columns": ["molecule", "IC50"],
 "data": [
  ["N#Cc1nc2c(nc1C#N)-c1ccccc1C2=NOCCOc1ccccc1 [Example 27a]", "> 100 µM"],
  ["CCON=C1c2ccccc2-c2nc(C(N)=O)c(C#N)nc21 [Example 34b]", "> 100 µM"],
  ["COc1cc2c(cc1OC)-c1nc(C#N)c(C#N)nc1C2=O [Example 17b]", "> 100 µM"],
  ["N#Cc1nc2sc3ccccc3c2nc1C#N [Example 19]", "> 100 µM"],
  ["CC(=O)O/N=C1\\c2ccccc2-c2nc(C(N)=O)c(C#N)nc21 (single isomer, unassigned) [Example 35]", "11.5 µM"],
  ["COc1ccc(OC)c2c1C(=O)c1nc(C#N)c(C#N)nc1-2 [Example 17f]", "52.6 µM"],
  ["N#Cc1nc2c(nc1Cl)-c1ccccc1C2=O [Example 9]", "> 100 µM"],
  ["COc1ccc2c(c1)C(=O)c1nc(C#N)c(C#N)nc1-2 [Example 17i]", "32 µM"],
  ["N#Cc1nc2c(nc1C#N)C1(OCCO1)c1ccccc1-2 [Example 10]", "> 100 µM"]
]}

###

target: Cathepsin B (Homo sapiens, UniProt P07858); experiment: Cathepsin B activity assay; type: biochemical; conditions: 36 μM z-RR-AMC, 3.6 nM enzyme, 30 min pre-incubation at 25° C., 60 min at 37° C.; sigmoidal fit; AF: Autofluorescent; read-out: cathepB (inhibition of cysteine protease activity)
pIC50: −log10 of the molar value.
pIC50 by entry:

{"columns": ["compound", "pIC50"],
 "data": [
  ["N#Cc1nc2c(nc1C#N)-c1ccccc1C2=Nc1ccccc1 (mixture of isomers)", 4.13],
  ["N#Cc1nc2c(nc1N)-c1ccccc1C2=O", "< 4.00"],
  ["N#Cc1nc2c(nc1O)-c1ccccc1C2=O", "< 4.00"],
  ["N#Cc1nc2c(nc1CC(N)=O)-c1ccccc1C2=O", "< 4.00"],
  ["Cc1cccc2c1C(=O)c1nc(C#N)c(C#N)nc1-2 [Example 17c]", "< 4.00"],
  ["CN(C)c1nc2c(nc1C#N)C(=O)c1ccccc1-2", "< 4.00"],
  ["N#Cc1nc2c(nc1C#N)-c1ccc(O)cc1C2=O [Example 17j]", 4.40],
  ["COCCOc1nc2c(nc1C#N)C(=O)c1ccccc1-2", "< 4.00"],
  ["N#Cc1nc2c(nc1O)-c1ccc(Cl)cc1C2=O", "< 4.00"],
  ["COCCON=C1c2ccccc2-c2nc(C(N)=O)c(C#N)nc21 [Example 34c]", "< 4.00"]
]}
